Origin of measurements: the supplement of paper PMC9732359

# test.protocol: protein stability index of a GFP-peptide fusion (yeast GPS) (PSI 1-4); higher = more stable; sorted into four equal gates, so the index is relative within each strain
# particulars: san1∆
endpoint.name: protein stability index
Quick one: just the number, no unit, thanks!

Worked set:
Prompt line: Check the records and state protein stability index for LGNGVACDPSEIEPILM [RGR1]
Response line: 3.34

Prompt line: Check the records and state protein stability index for EEYKKSLYAYCHSKLRG [GRR1]
Response line: 2.42

Prompt line: Check the records and state protein stability index for DHIAIDWEDEEKYEDED [DSN1]
Response line: 2.55

Proceed to the following item.
Prompt line: Check the records and state protein stability index for KIALMNIPKPLNSYHIK [RGR1]
Response line: 1.69

----------
// values below are reported protein stability index
# test.protocol: protein stability index of a GFP-peptide fusion (yeast GPS) (PSI 1-4); higher = more stable; sorted into four equal gates, so the index is relative within each strain
# particulars: doa10∆
Quick one: just the number, no unit, thanks!

Worked set:
Prompt line: Check the records and state protein stability index for VGFWKDDGDDEDLLECL [MTR3]
Response line: 2.67

Prompt line: Check the records and state protein stability index for PLINLALIDTEFANFEL [YML103C/NUP188]
Response line: 2.71

More entries:
Prompt line: Check the records and state protein stability index for LDTYLPEDLNSLYIYYL [SIR2]
Response line: 2.8

Prompt line: Check the records and state protein stability index for NESSLALEFVSLLLSSV [SRB4]
Response line: 1.18

Prompt line: Check the records and state protein stability index for SPDKIGTFTADYSKPNL [SSN2]
Response line: 2.81

Prompt line: Check the records and state protein stability index for QQYVAAGDLRALDTVTN [FAS1]
Response line: 2.88

Prompt line: Check the records and state protein stability index for RGPRNSREAVRHFGMGP [RPL18A]
Response line: 2.53

----------
// values below are reported protein stability index
# test.protocol: protein stability index of a GFP-peptide fusion (yeast GPS) (PSI 1-4); higher = more stable; sorted into four equal gates, so the index is relative within each strain
# particulars: san1∆
Quick one: just the number, no unit, thanks!

Worked set:
Prompt line: Check the records and state protein stability index for VEVIKQLSLDASKTNLR [GAL11]
Response line: 3.24

Prompt line: Check the records and state protein stability index for NYGMIAINPGRVAASFS [FAS1]
Response line: 1.46

Prompt line: Check the records and state protein stability index for GSLKLIELLCGLGKSAV [NAS6]
Response line: 3.08

Prompt line: Check the records and state protein stability index for TKSNRRVSHSDTNSSKP [SIR4]
Response line: 2.99

More entries:
Prompt line: Check the records and state protein stability index for SQTQLENANAANNGAAF [MED2]
Response line: 2.85

Prompt line: Check the records and state protein stability index for NKYQIKKAVKELYEVDV [RPL25]
Response line: 3.12

Prompt line: Check the records and state protein stability index for LNELYQTQQDLPKVRYN [NSL1]
Response line: 2.96

Prompt line: Check the records and state protein stability index for LLDILVKGETRIQNRVK [PRP8]
Response line: 3.49

----------
# test.protocol: protein stability index of a GFP-peptide fusion (yeast GPS) (PSI 1-4); higher = more stable; sorted into four equal gates, so the index is relative within each strain
# particulars: san1∆
// values below are reported protein stability index
Quick one: just the number, no unit, thanks!

Worked set:
Prompt line: Check the records and state protein stability index for KQFFQMTPLLVNCLELL [PCI8]
Response line: 1.26

Prompt line: Check the records and state protein stability index for KFKRHHSDRYHRVAENW [RPL32]
Response line: 3.2

Prompt line: Check the records and state protein stability index for EFISIYSNSHQMAVHIA [RET1]
Response line: 3.04

Prompt line: Check the records and state protein stability index for EVRRAAMLNLINDNNTR [YCG1]
Response line: 2.94

Prompt line: Check the records and state protein stability index for TTLTIMRILPRETDPLV [RPT4]
Response line: 2.73

Prompt line: Check the records and state protein stability index for HELGINIDSLKFNELVK [BRR2]
Response line: 3.08

Prompt line: Check the records and state protein stability index for NVVEIWVFSYLRWFELK [SIR3]
Response line: 2.17

Prompt line: Check the records and state protein stability index for LLVNPDIDLETYSFIDN [YML103C/NUP188]
Response line: 2.66

Prompt line: Check the records and state protein stability index for NYSSESYRNAFTNVLTK [YJL039C/NUP192]
Response line: 2.31

Prompt line: Check the records and state protein stability index for ARAAKIAPRPLDLLRPV [RPL13B]
Response line: 3.07

More entries:
Prompt line: Check the records and state protein stability index for PTSPAYSPTSPSYSPTS [RPO21]
Response line: 2.73

Prompt line: Check the records and state protein stability index for TQSGGVRPFGVSTLIAG [PRE6]
Response line: 1.75

Prompt line: Check the records and state protein stability index for VDSQGLPYNWDALEMQW [ARP7]
Response line: 2.64

Prompt line: Check the records and state protein stability index for RQTLAPYAVLSQFYELR [YJR042W/NUP85]
Response line: 2.42
